molecular target: UniProtKB P28223; assay: 5-HT2A Gq-mediated calcium flux functional assay; format: cell-based; conditions: IA = Inactive; N=1-3
Overview of reported 5-HT2A-Ca2+ FLUX Emax (% 5-HT) across a group of compounds:
MEASURED QUANTITY: 5-HT2A-Ca2+ FLUX Emax (% 5-HT)

CCCN(CC)CC(=O)c1c[nH]c2ccc(F)cc12: 81.0
CN1CCC(c2c[nH]c3c(F)cccc23)C1 (centres unmarked): 41.8
CCN(C)CCc1c[nH]c2c(F)cc(OC)cc12: 90.6
CCN(C)CCc1c[nH]c2c(Br)cc(F)cc12: 38.2
CCC(C)N(CC)CCc1c[nH]c2ccc(F)cc12 (centres unmarked): 93.2
